- Tested on: Sporothrix schenckii
- experimental_protocol: Antifungal activity against Sporothrix schenckii after 72 to 96 hrs by broth microdilution technique
- Assay type: functional
Mark YES for MIC under 2 µg/mL, NO if at or over.

Here's what some known entries look like.
- compound_structure_string: "O=C1/C(=C/c2ccc(F)cc2)SC(=S)N1Cc1ccncc1"
  label: "YES"
- compound_structure_string: "O=C1CSC(=S)N1Cc1ccncc1"
  label: "YES"
- compound_structure_string: "O=C1/C(=C/c2ccccc2F)SC(=S)N1Cc1ccncc1"
  label: "YES"
- compound_structure_string: "O=C1/C(=C/c2ccc(OCCCCCOc3ccc(/C=C4\\SC(=S)N(Cc5ccncc5)C4=O)cc3)cc2)SC(=S)N1Cc1ccncc1"
  label: "NO"
- compound_structure_string: "O=C1/C(=C/c2ccc(Cl)cc2)SC(=S)N1Cc1ccncc1"
  label: "NO"
- compound_structure_string: "O=C1/C(=C/c2ccco2)SC(=S)N1Cc1ccncc1"
  label: "NO"
- compound_structure_string: "O=C1/C(=C/c2ccccc2[N+](=O)[O-])SC(=S)N1Cc1ccncc1"
  label: "NO"
- compound_structure_string: "O=C1/C(=C/c2ccccc2)SC(=S)N1Cc1ccncc1"
  label: "NO"
- compound_structure_string: "O=C1/C(=C/c2ccncc2)SC(=S)N1Cc1ccncc1"
  label: "NO"
- compound_structure_string: "C=CCSC(=S)NCc1ccncc1"
  label: "YES"

-- ask Determine if CCCSC(=S)NCc1ccncc1 shows MIC strictly lower than 2 µg/mL.
-- reply YES

-- ask Determine if O=C1/C(=C/c2ccc(/C=C3\SC(=S)N(Cc4ccncc4)C3=O)cc2)SC(=S)N1Cc1ccncc1 shows MIC strictly lower than 2 µg/mL.
-- reply NO

-- ask Determine if O=C1/C(=C/c2cccc3ccccc23)SC(=S)N1Cc1ccncc1 shows MIC strictly lower than 2 µg/mL.
-- reply NO

-- ask Determine if OC(Cn1cncn1)(Cn1cncn1)c1ccc(F)cc1F shows MIC strictly lower than 2 µg/mL.
-- reply NO

---

- System: L929
- experimental_protocol: Cytotoxicity against mouse L929 cells assessed as morphological changes up to 3.12 ug/ml after 24 hrs by giemsa staining based phase contrast microscopy
- Type: cell-based
- test_parameters: l929, 24 h
observation_type: Activity

These solved cases illustrate the format of a correct answer.
- compound_structure_string: "O=C1/C(=C/c2ccncc2)SC(=S)N1Cc1ccncc1"
  target_under_test: "L929"
  Activity: "Non-toxic"
- compound_structure_string: "O=C1CSC(=S)N1Cc1ccncc1"
  target_under_test: "L929"
  Activity: "Non-toxic"
- compound_structure_string: "CCCCSC(=S)NCc1ccncc1"
  target_under_test: "L929"
  Activity: "Non-toxic"
- compound_structure_string: "FC(F)(F)c1ccc(CSC(=S)NCc2ccncc2)cc1"
  target_under_test: "L929"
  Activity: "Non-toxic"
- compound_structure_string: "CCSC(=S)NCc1ccncc1"
  target_under_test: "L929"
  Activity: "Non-toxic"
- compound_structure_string: "S=C(NCc1ccncc1)SCc1ccccc1"
  target_under_test: "L929"
  Activity: "Non-toxic"
- compound_structure_string: "O=C1/C(=C/c2ccco2)SC(=S)N1Cc1ccncc1"
  target_under_test: "L929"
  Activity: "Non-toxic"
- compound_structure_string: "O=C1/C(=C/c2ccc(F)cc2)SC(=S)N1Cc1ccncc1"
  target_under_test: "L929"
  Activity: "Non-toxic"
- compound_structure_string: "CCCSC(=S)NCc1ccncc1"
  target_under_test: "L929"
  Activity: "Non-toxic"
- compound_structure_string: "O=C1/C(=C/c2cc3c(cc2[N+](=O)[O-])OCO3)SC(=S)N1Cc1ccncc1"
  target_under_test: "L929"
  Activity: "Non-toxic"

Short answer for C=CCSC(=S)NCc1ccncc1 : Activity was Non-toxic
